# assayed_system: Human KIF18A (amino acid sequence 1-417) (Homo sapiens, UniProt Q8NI77)
# Sequence (Q8NI77 1-417): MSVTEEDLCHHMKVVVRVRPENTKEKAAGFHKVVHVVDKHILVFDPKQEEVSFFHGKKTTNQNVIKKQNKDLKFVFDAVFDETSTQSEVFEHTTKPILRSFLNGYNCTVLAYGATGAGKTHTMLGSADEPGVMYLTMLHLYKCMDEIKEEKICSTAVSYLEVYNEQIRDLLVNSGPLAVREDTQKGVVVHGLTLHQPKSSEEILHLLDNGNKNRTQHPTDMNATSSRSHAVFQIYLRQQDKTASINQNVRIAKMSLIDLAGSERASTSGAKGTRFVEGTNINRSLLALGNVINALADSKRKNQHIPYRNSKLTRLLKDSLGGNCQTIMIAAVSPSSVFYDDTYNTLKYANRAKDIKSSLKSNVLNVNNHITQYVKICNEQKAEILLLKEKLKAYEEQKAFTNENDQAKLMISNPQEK
# test_protocol: Enzymatic Activity Test (ADP-Glo, microtubule-stimulated KIF18A ATPase)
# measurement_parameters: 60 µg/mL microtubules, 25 µM ATP, 2.5 nM KIF18A protein, 120 min at ambient temperature, chemiluminescence; read-out: KIF 18A IC50
# Description: Assay 1: Enzymatic Activity Test Materials: Human KIF18A (amino acid sequence 1-417) was purchased from Viva Biotech (Shanghai) Ltd.; the ADP-Glo™ protein kinase kit was acquired from Promega, USA; tubulin was sourced from Cytoskeleton, USA; and the 384-well assay plate and Envision multifunctional microplate reader were obtained from PerkinElmer, USA. Enzymatic Activity Test: The compound powder was dissolved in DMSO to prepare a stock solution of 10 mM. […]
pIC50: −log10 of the molar value.
Threshold rule: pIC50 greater than or equal to 7 is Satisfied; below that, Not satisfied.

> print(dat)
                                    compound  class.assignment
 1  O=C1Nc2cccc(c2)S(=O)(=O)NCCCCC2CCN(CC2)c2cc(NS(=O)(=O)CCO)ccc21         Satisfied
 2  Cc1cc2nc(n1)N1CCCC(C=CC3CCN(CC3)c3cc(NS(=O)(=O)CCO)ccc3C(=O)N2)C1 (stereo not drawn)     Not satisfied
 3  Cc1cc2nc(n1)N1CCC(F)(F)C(C=CCC3CCN(CC3)c3cc(NS(=O)(=O)CCO)ccc3C(=O)N2)C1 (stereo not drawn) [Example 18D]     Not satisfied
 4  Cc1cc2nc(n1)N1CCC(F)(F)C(C=CCC3CCN(CC3)c3cc(NS(=O)(=O)CCO)ccc3C(=O)N2)C1 (stereo not drawn) [Example 18B]         Satisfied
 5  Cc1cc2nc(n1)N1CCCC(C=CCC3CCN(CC3)c3cc(NS(=O)(=O)CCO)ccc3C(=O)N2)C1 (stereo not drawn) [Example 1C]         Satisfied
 6  Cc1cc2nc(n1)N1CCCC(CCC3CCCN(C3)c3cc(NS(=O)(=O)CCO)ccc3C(=O)N2)C1 (stereo not drawn)     Not satisfied
 7  O=C1Nc2cccc(c2)S(=O)(=O)NCC=CC2CCN(CC2)c2cc(NS(=O)(=O)CCO)ccc21     Not satisfied
 8  O=C1Nc2cccc(c2)S(=O)(=O)NCC=CCCC2CCN(CC2)c2cc(NS(=O)(=O)CCO)ccc21         Satisfied
 9  Cc1cc2nc(n1)N1CCC(F)(F)C(CCC=C3CCN(CC3)c3cc(NS(=O)(=O)CCO)ccc3C(=O)N2)C1 (stereo not drawn)     Not satisfied
10  Cc1cc2nc(n1)N1CCOC(CCCC3CCN(CC3)c3cc(NS(=O)(=O)CCO)ccc3C(=O)N2)C1 (stereo not drawn)         Satisfied
11  Cc1cc2nc(n1)N1CCC(F)(F)C(C=CCC3CCN(CC3)c3cc(NS(=O)(=O)CCO)ccc3C(=O)N2)C1 (stereo not drawn) [Example 18A]     Not satisfied
12  Cc1cc2nc(n1)N1CCCC(COCC3CCN(CC3)c3cc(NS(=O)(=O)CCO)ccc3C(=O)N2)C1 (stereo not drawn) [Example 28]     Not satisfied

* * *

# System: OVCAR3 cells
# test_protocol: Cell Proliferation Activity Test (CyQUANT Direct), OVCAR3
# Type: cell-based
# measurement_parameters: compound 0-10 µM, 3 days, 0.2% DMSO, CyQUANT fluorescence, read-out: OVCAR-3 _IC50_nM
Let's look at some compounds and their measured IC50.
endpoint: IC50

> print(dat)
                                   compound  measured.result
1  Cc1cc2nc(n1)N1CCCC(C=CCC3CCN(CC3)c3cc(NS(=O)(=O)CCO)ccc3C(=O)N2)C1 (centres unmarked) [Example 1B]             6 nM
2  Cc1cc2nc(n1)N1CCC(F)(F)C(CCCC3CCN(CC3)c3cc(NS(=O)(=O)CCO)ccc3C(=O)N2)C1 (centres unmarked) [Example 23]            52 nM
3  Cc1cc2nc(n1)N1CCC(F)(F)C(C=CCC3CCN(CC3)c3cc(NS(=O)(=O)CCO)ccc3C(=O)N2)C1 (centres unmarked) [Example 18A]        > 3000 nM
4  Cc1cc2nc(n1)N1CCCC(CCCC3CCN(CC3)c3cc(NS(=O)(=O)CCO)ccc3C(=O)N2)C1 (centres unmarked) [Example 3A]          1610 nM
5  Cc1cc2nc(n1)N1CCC(F)(F)C(C=CCC3CCN(CC3)c3cc(NS(=O)(=O)CCO)ccc3C(=O)N2)C1 (centres unmarked) [Example 18B]            12 nM
6  Cc1cc2nc(n1)N1CCC(F)(F)C(C=CCC3CCN(CC3)c3cc(NS(=O)(=O)CCO)ccc3C(=O)N2)C1 (centres unmarked) [Example 18D]           458 nM
7  Cc1cc2nc(n1)N1CCC(F)(F)C(C=CCC3CCN(CC3)c3cc(NS(=O)(=O)CCO)ccc3C(=O)N2)C1 (centres unmarked) [Example 18C]            29 nM
8  Cc1cc2nc(n1)N1CCCC(C=CCC3CCN(CC3)c3cc(NS(=O)(=O)CCO)ccc3C(=O)N2)C1 (centres unmarked) [Example 1C]            61 nM

* * *

# assayed_system: Human KIF18A (amino acid sequence 1-417) (Homo sapiens)
# test_protocol: Enzymatic Activity Test (ADP-Glo, microtubule-stimulated KIF18A ATPase)
# measurement_parameters: 60 µg/mL microtubules, 25 µM ATP, 2.5 nM KIF18A protein, 120 min at ambient temperature, chemiluminescence; read-out: KIF 18A IC50
pIC50: −log10 of the molar value.
Below: a set of entries, each annotated with reported pIC50.
endpoint: pIC50

> print(dat)
                                    compound  endpoint  measured.result
 1  Cc1cc2nc(n1)N1CCC(F)(F)C(CCCC3CCN(CC3)c3cc(NS(=O)(=O)CCO)ccc3C(=O)N2)C1 (stereo not drawn) [Example 23A]     pIC50             6.28
 2  Cc1cc2nc(n1)N1CCC(F)(F)C(CCCC3CCN(CC3)c3cc(NS(=O)(=O)CCO)ccc3C(=O)N2)C1 (stereo not drawn) [Example 23B]     pIC50             7.15
 3  Cc1cc2nc(n1)N1CCCC(C1)C(=O)NCC1CCN(CC1)c1cc(NS(=O)(=O)CCO)ccc1C(=O)N2 (stereo not drawn)     pIC50             6.58
 4  Cc1cc2nc(n1)N1CCC(F)(F)C(=CCCC3CCN(CC3)c3cc(NS(=O)(=O)CCO)ccc3C(=O)N2)C1     pIC50             6.52
 5  Cc1cc2nc(n1)N1CCC(F)(F)C(C=CCC3CCN(CC3)c3cc(NS(=O)(=O)CCO)ccc3C(=O)N2)C1 (stereo not drawn) [Example 18]     pIC50             7.03
 6  Cc1cc2nc(n1)N1CCCC(C=CCC3CCCN(C3)c3cc(NS(=O)(=O)CCO)ccc3C(=O)N2)C1 (stereo not drawn)     pIC50             6.70
 7  Cc1cc2nc(n1)N1CCC(F)(F)C(CC=CC3CCN(CC3)c3cc(NS(=O)(=O)CCO)ccc3C(=O)N2)C1 (stereo not drawn)     pIC50             6.74
 8  Cc1cc2nc(n1)N1CCCC(CCCCC3CCN(CC3)c3cc(NS(=O)(=O)CCO)ccc3C(=O)N2)C1 (stereo not drawn)     pIC50             6.71
 9  Cc1cc2nc(n1)N1CCCC(C=CCC3CCN(CC3)c3cc(NS(=O)(=O)CCO)ccc3C(=O)N2)C1 (stereo not drawn) [Example 1B]     pIC50             7.47
10  Cc1cc2nc(n1)N1CCCC(C=CCC3CCN(CC3)c3cc(NS(=O)(=O)CCO)ccc3C(=O)N2)C1 (stereo not drawn) [Example 1D]     pIC50             6.61
11  Cc1cc2nc(n1)OCCOCCC1CCN(CC1)c1cc(NS(=O)(=O)CCO)ccc1C(=O)N2     pIC50             6.85
12  Cc1cc2nc(n1)N1CCCC(COCC3CCN(CC3)c3cc(NS(=O)(=O)CCO)ccc3C(=O)N2)C1 (stereo not drawn) [Example 28A]     pIC50             6.75

* * *

# assayed_system: Human KIF18A (amino acid sequence 1-417) (Homo sapiens)
# test_protocol: Enzymatic Activity Test (ADP-Glo, microtubule-stimulated KIF18A ATPase)
# measurement_parameters: 60 µg/mL microtubules, 25 µM ATP, 2.5 nM KIF18A protein, 120 min at ambient temperature, chemiluminescence; read-out: KIF 18A IC50
pIC50: −log10 of the molar value.
Each entry below carries its reported pIC50.
endpoint: pIC50

> print(dat)
                                    molecule  lt.gt.eq  measured.result
 1  Cc1cc2nc(n1)N1CCC(F)(F)C(CCCC3CCN(CC3)c3cc(NS(=O)(=O)CCO)ccc3C(=O)N2)C1 (stereo not drawn) [Example 23]         =             6.99
 2  Cc1cc2nc(n1)N1CCCC(C=CCC3CCN(CC3)c3cc(NS(=O)(=O)CCO)cnc3C(=O)N2)C1 (stereo not drawn)         =             8.10
 3  O=C1Nc2cccc(c2)S(=O)(=O)N2CCN(CCC3CCN(CC3)c3cc(NS(=O)(=O)CCO)ccc31)CC2         =             6.22
 4  Cc1cc2nc(n1)N1CCCC(CCCC3CCN(CC3)c3cc(NS(=O)(=O)CCO)ccc3C(=O)N2)C1 (stereo not drawn) [Example 3B]         =             7.17
 5  O=C1Nc2cccc(c2)S(=O)(=O)NCCCCCC2CCN(CC2)c2cc(NS(=O)(=O)CCO)ccc21         =             7.64
 6  Cc1cc2nc(n1)N1CCCC(C=CC3CCCN(C3)c3cc(NS(=O)(=O)CCO)ccc3C(=O)N2)C1 (stereo not drawn)         =             5.64
 7  Cc1cc2nc(n1)N1CCCC(COCC3CCN(CC3)c3cc(NS(=O)(=O)CCO)ccc3C(=O)N2)C1 (stereo not drawn) [Example 28B]         =             6.13
 8  Cc1cc2nc(n1)N1CCC(F)(F)C(C=CCC3CCN(CC3)c3cc(NS(=O)(=O)CCO)ccc3C(=O)N2)C1 (stereo not drawn) [Example 18C]         =             7.39
 9  O=C1Nc2cccc(c2)S(=O)(=O)NCCCC2CCN(CC2)c2cc(NS(=O)(=O)CCO)ccc21         =             6.23
10  Cc1cc2nc(n1)N1CCCC(CCCC3CCN(CC3)c3cc(NS(=O)(=O)CCO)ccc3C(=O)N2)C1 (stereo not drawn) [Example 3A]         =             7.59
11  Cc1cc2nc(n1)N1CCCC(CCCC3CCCN(C3)c3cc(NS(=O)(=O)CCO)ccc3C(=O)N2)C1 (stereo not drawn)         =             6.63
12  Cc1cc2nc(n1)N1CCCC(C=CCC3CCN(CC3)c3cc(NS(=O)(=O)CCO)ccc3C(=O)N2)C1 (stereo not drawn) [Example 1A]         <             5.52
13  Cc1cc2nc(n1)N1CCOC(C=CCC3CCN(CC3)c3cc(NS(=O)(=O)CCO)ccc3C(=O)N2)C1 (stereo not drawn)         =             7.89
14  Cc1cc2nc(n1)N1CCCC(CCC3CCN(CC3)c3cc(NS(=O)(=O)CCO)ccc3C(=O)N2)C1 (stereo not drawn)         =             7.42
15  Cc1cc2nc(n1)N1CCCC(C=CCC3CCN(CC3)c3cc(NS(=O)(=O)CCO)ccc3C(=O)N2)C1 (stereo not drawn) [Example 1]         =             7.21

The measured values listed here are drawn from patent EP4755892A1.
